The measured values listed here are drawn from the NIST ThermoML archive (doi:10.1016/j.jct.2009.11.004).

This listing pairs compounds with measured mass density.
- condition-notes: 353.15 K; 101.33 kPa; Liquid; Vibrating tube method
Express your answer in kg/m3, writing the number without its unit.

Sample records with mass density:
CCCCCCCCCC[n+]1ccccc1.O=S(=O)([N-]S(=O)(=O)C(F)(F)F)C(F)(F)F [1-decylpyridinium bis(trifluoromethylsulfonyl)imide]
1237.9
CCCC[n+]1ccccc1.O=S(=O)([N-]S(=O)(=O)C(F)(F)F)C(F)(F)F [1-butylpyridinium bis[(trifluoromethyl)sulfonyl]imide]
1397
CCCCCCCCCCCC[n+]1ccccc1.O=S(=O)([N-]S(=O)(=O)C(F)(F)F)C(F)(F)F [1-dodecylpyridinium bis(trifluoromethylsulfonyl)imide]
1204

Now consider a different compound.
q: Report mass density for CCCCCCCC[n+]1ccccc1.O=S(=O)([N-]S(=O)(=O)C(F)(F)F)C(F)(F)F [1-octylpyridinium bis((trifluoromethyl)sulfonyl)amide] please.
a: 1279.9
